Assay: in vitro
Observable: CC50

Asked: Need CC50, item COc1ccc2c(c1)[C@@H]1C[C@]1(C(=O)N1[C@@H]3CC[C@H]1CN(C)C3)Cn1c-2c(C2CCCCC2)c2ccc(C(=O)NS(=O)(=O)N(C)C)cc21 [Compound 66, beclabuvir]
Given back: 14 to 48 µM

====

Molecular target: CYP 3A4 (Homo sapiens)
Sequence (P08684 whole entry): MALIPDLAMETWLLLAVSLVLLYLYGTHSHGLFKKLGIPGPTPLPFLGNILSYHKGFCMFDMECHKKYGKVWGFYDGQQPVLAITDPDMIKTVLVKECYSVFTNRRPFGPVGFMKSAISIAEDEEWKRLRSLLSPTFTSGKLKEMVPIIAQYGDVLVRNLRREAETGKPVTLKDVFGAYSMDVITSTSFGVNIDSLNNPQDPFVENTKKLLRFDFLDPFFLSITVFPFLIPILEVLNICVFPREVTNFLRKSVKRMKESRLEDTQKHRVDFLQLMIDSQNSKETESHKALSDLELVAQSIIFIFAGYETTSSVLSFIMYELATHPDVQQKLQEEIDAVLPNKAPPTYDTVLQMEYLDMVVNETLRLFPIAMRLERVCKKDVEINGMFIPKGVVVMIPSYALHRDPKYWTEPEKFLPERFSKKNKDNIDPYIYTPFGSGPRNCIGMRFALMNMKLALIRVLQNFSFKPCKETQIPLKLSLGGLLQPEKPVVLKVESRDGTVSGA
Assay: in vitro
Observable: IC50

Asked: Need IC50, item COc1ccc2c(c1)[C@@H]1C[C@]1(C(=O)N1[C@@H]3CC[C@H]1CN(C)C3)Cn1c-2c(C2CCCCC2)c2ccc(C(=O)NS(=O)(=O)N(C)C)cc21
Given back: > 40 µM

====

Assay: in vivo
Settings: rat, iv, 5 mg/kg
Observable: half-life (min)
State the answer as a number, implicitly in min.

Asked: Need half-life, item COc1ccc2c(c1)[C@@H]1C[C@]1(C(=O)N1[C@@H]3CC[C@H]1CN(C)C3)Cn1c-2c(C2CCCCC2)c2ccc(C(=O)NS(=O)(=O)N(C)C)cc21
Given back: 672

====

Target: NS5B P495L (Hepatitis C virus genotype 1b, UniProt Q9WMX2, P2914L)
Test: biochemical
Observable: IC50 (µM)
State the answer as a number, implicitly in µM.

Asked: Enter reported IC50 observed with NS5B P495L (Hepatitis C virus genotype 1b, UniProt Q9WMX2, P2914L) for COc1ccc2c(c1)[C@@H]1C[C@]1(C(=O)N1[C@@H]3CC[C@H]1CN(C)C3)Cn1c-2c(C2CCCCC2)c2ccc(C(=O)NS(=O)(=O)N(C)C)cc21 [Compound 66, beclabuvir]
Given back: 0.19

====

Tested on: BVDV, polio, rhino, corona, coxsackie, influenza, and human immunodeficiency viruses (HIV)
Test: organism not typed
Format: cell-based
Conditions: read-out: EC50 against panel of viruses
pEC50: −log10 of the molar value.
Observable: pEC50

Asked: Need pEC50, item COc1ccc2c(c1)[C@@H]1C[C@]1(C(=O)N1[C@@H]3CC[C@H]1CN(C)C3)Cn1c-2c(C2CCCCC2)c2ccc(C(=O)NS(=O)(=O)N(C)C)cc21
Given back: < 4.85

====

Test: in vitro
Conditions: monkey, microsomes
Observable: half-life (min)
State the answer as a number, implicitly in min.

Asked: Need half-life, item COc1ccc2c(c1)[C@@H]1C[C@]1(C(=O)N1[C@@H]3CC[C@H]1CN(C)C3)Cn1c-2c(C2CCCCC2)c2ccc(C(=O)NS(=O)(=O)N(C)C)cc21
Given back: 23
